# system.under.test: T1, CD71 apical domain (human, UniProt P02786 189-383, limits assumed)
# T1 construct: domain: apical domain
# protocol.details: solution ELISA screen, signal ratio to HSA control
reported.property: apical domain:HSA (ratio)
Give bare numbers, in ratio.

Field: example entries. Status: answers known.
binder: SEQ ID NO 224 (designed binder, not shown: small tags and cut ends) MLPAPKNLVVSRVTEDSARLSWTAPDAAFDSFYIAYAEPRPDGEAILLRVPGSERSYDLTGLKPGTEYSVLIHGVKGGLLSSPLVAEFTT
unit.abbrev: ratio
number: 261
--
binder: SEQ ID NO 247 (designed binder, not shown: small tags and cut ends) MLPAPKNLVVSRVTEDSARLSWTAPDAAFDSFYIAYAEPRPDGEAILLHVPGSERSYDLTGLKPGTEYSVLIHGVKGGLLSSPLRASFTT
unit.abbrev: ratio
number: 394
--
binder: SEQ ID NO 243 (designed binder, not shown: small tags and cut ends) MLPAPKNLVVSRVTEDSARLSWTAPDAAFDSFFIGYLEPQPPGEAIHLAVPGSERSYDLTGLKPGTEYNVTIQGVKGGFPSVPLAAVFTT
unit.abbrev: ratio
number: 103

State the recorded apical domain:HSA for every item in the following list.
1. SEQ ID NO 216 (designed binder, not shown: small tags and cut ends) MLPAPKNLVVSRVTEDSARLSWTAPDAAFDSFYIAYAEPRPDGEAISLSVPGSERSYDLTGLKPGTEYSVLIHGVKGGLLSSPPKFTT
2. SEQ ID NO 204 (designed binder, not shown: small tags and cut ends) MLPAPKNLVVSRVTEDSARLSWTAPDAAFDSFFIGYLEPQPPGEAILLWVPGSERSYDLTGLKPGTEYNVTIQGVKGGFPSQFTT
3. SEQ ID NO 206 (designed binder, not shown: small tags and cut ends) MLPAPKNLVVSRVTEDSARLSWTAPDAAFDSFYIAYAEPRPDGEAIGLDVPGSERSYDLTGLKPGTEYSVLIHGVKGGLLSSPLSAIFTT
4. SEQ ID NO 246 (designed binder, not shown: small tags and cut ends) MLPAPKNLVVSRVTEDSARLSWTAPDAAFDSFYIAYAEPRPDGEAIQLHVPGSERSYDLTGLKPGTEYSVLIHGVKGGLLSSPLYAFFTT
5. SEQ ID NO 229 (designed binder, not shown: small tags and cut ends) MLPAPKNLVVSRVTEDSARLSWTAPDAAFDSFYIAYAEPRPDGEAIQLLVPGSERSYDLTGLKPGTEYSVLIHGVKGGLLSSPLVAHFTT
6. SEQ ID NO 205 (designed binder, not shown: small tags and cut ends) MLPAPKNLVVSRVTEDSARLSWTAPDAAFDSFFIGYLEPQPPGEAILLGVPGSERSYDLTGLKPGTEYNVTIQGVKGGFPSMPLHPLVALFTT

1: 0.7; 2: 317; 3: 373; 4: 1.8; 5: 374; 6: 1
